# MEASUREMENT_TARGET: HLA-B*58:01
# ASSAY_OVERVIEW: IEDB peptide-MHC binding, purified MHC/direct/fluorescence; filed as Kd, often an IC50 or EC50 that approximates it; bounds were set here for any values at or beyond the usual limits of such assays
# TEST_CONDITIONS: source organism: Entamoeba histolytica HM-1:IMSS
pKd: −log10 of the molar value.
OBSERVATION_TYPE: pKd

| SEQUENCE_DATA | MEASUREMENT_TARGET | TEST_VALUE |
| --- | --- | --- |
| SSTDQQEWM | HLA-B*58:01 | 5.41 |
